Cited source: ChEMBL document CHEMBL4513216

- TEST PROTOCOL: Toxicity liver stage against HepG2, at 10uM
- Type: cell-based
- Parameters: test concentration 10 uM, cell line HepG2-A16-CD81EGFP
- SETTINGS: human, HepG2-A16-CD81EGFP cells; read-out: INHIBITION
QUANTITY KIND: cytotoxicity at 10 µM
Record the result as number plus unit.

In [3]: df
Out[3]:
                                   molecule          quantity_kind  result
0        CC(C)(C)c1ncc(C(=O)NCCNc2ncccn2)s1  cytotoxicity at 10 µM  -1.62%
1  COc1ccc2c(c1)c(C(=O)Nc1cc(C)n(C)n1)cn2C(C)C  cytotoxicity at 10 µM  -1.33%
2  Cc1ccc(C(N)c2cccc(S(C)(=O)=O)c2)cc1 (centres undefined)  cytotoxicity at 10 µM   3.18%
3           Cc1nc(COC(=O)c2cccc3c2OCCO3)cs1  cytotoxicity at 10 µM    1.4%
4  O=C1NC2(CCN(C(=O)c3ccc(Cl)cn3)CC2)CC1c1ccccc1 (centres undefined)  cytotoxicity at 10 µM   2.75%

Req: cytotoxicity at 10 µM for `O=C(Cn1cc(-c2ccccc2)ncc1=O)Nc1ccncc1` ?
Resp: 11%
